Data origin: patent US11780845B2

studyTarget: FGFR2 (Homo sapiens (Human), UniProt P21802)
Sequence (P21802 22-821): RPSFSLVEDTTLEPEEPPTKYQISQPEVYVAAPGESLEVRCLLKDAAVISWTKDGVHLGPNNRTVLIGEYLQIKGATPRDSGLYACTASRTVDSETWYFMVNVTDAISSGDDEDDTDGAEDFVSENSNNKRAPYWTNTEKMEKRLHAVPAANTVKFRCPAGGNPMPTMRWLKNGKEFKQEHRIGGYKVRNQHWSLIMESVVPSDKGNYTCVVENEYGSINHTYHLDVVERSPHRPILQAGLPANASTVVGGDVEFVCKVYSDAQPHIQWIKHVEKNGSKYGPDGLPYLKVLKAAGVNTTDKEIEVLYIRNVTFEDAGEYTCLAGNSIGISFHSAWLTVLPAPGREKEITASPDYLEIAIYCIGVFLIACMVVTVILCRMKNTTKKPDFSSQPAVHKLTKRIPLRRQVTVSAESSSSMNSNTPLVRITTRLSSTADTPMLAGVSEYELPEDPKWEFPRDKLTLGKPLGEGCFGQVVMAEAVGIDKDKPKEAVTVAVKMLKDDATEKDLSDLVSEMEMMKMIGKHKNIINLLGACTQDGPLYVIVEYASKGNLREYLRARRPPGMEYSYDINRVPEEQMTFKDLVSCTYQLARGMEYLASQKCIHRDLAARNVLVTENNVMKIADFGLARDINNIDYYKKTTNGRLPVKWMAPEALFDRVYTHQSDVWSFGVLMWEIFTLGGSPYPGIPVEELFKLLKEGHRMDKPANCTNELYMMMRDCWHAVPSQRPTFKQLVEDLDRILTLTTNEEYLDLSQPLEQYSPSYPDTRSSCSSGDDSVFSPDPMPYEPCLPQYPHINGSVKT
protocolDetails: Biochemical FGFR2 Caliper assay
pIC50: −log10 of the molar value.
The reader will find reported pIC50 values listed item by item below.

1. Cn1c(C2CCN(C#N)C2)c(-c2ccc(C(=O)N3CCCC3)cc2)c2c(N)ncnc21 (stereo not drawn) | > 7.00
2. C#C[C@@H]1CCCN1C(=O)[C@H]1CC=C(c2c(-c3ccc(NC(=O)C(=C)C)cc3)n(C)c3ncnc(N)c23)CC1 (single isomer, unassigned) | 6.60 to 7.00
3. C=C1CCN(c2ccc(-c3c(-c4ccc(Oc5nccc(C)n5)cc4)c4c(N)ncnc4n3C)cc2)C1=O | 4.00 to 6.00
4. C#Cc1cc(C)c(-c2c(-c3ccc(Oc4nccc(C)n4)c(C#N)c3)c3c(N)ncnc3n2C)cn1 | > 7.00
5. C#Cc1cc(C)c(-c2c(-c3ccc(OC(C)C)cc3)c3c(N)ncnc3n2C)cn1 | > 7.00

Please look at the following compound next.
Input line: Endpoint output: pIC50 of C#Cc1cc(C)c(-c2c(C3=CC[C@@H](C(=O)N4CCC[C@H]4C)CC3)c3c(N)ncnc3n2C)c(F)n1 . Value?
Output line: > 7.00
